EXPERIMENTAL_SYSTEM: Tumour suppressor p53/oncoprotein Mdm2 (Homo sapiens, UniProt Q00987)
Sequence (P04637 whole entry): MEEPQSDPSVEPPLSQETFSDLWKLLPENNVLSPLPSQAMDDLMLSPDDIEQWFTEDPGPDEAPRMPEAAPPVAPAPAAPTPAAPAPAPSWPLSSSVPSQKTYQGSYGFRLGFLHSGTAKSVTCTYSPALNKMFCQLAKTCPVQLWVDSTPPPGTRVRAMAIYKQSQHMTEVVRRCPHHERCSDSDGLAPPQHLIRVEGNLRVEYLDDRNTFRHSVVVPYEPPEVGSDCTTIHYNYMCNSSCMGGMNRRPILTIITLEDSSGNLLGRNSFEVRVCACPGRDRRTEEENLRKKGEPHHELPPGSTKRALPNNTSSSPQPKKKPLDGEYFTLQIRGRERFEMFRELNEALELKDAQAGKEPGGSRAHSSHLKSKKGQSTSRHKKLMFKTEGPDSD
Sequence (Q00987 whole entry): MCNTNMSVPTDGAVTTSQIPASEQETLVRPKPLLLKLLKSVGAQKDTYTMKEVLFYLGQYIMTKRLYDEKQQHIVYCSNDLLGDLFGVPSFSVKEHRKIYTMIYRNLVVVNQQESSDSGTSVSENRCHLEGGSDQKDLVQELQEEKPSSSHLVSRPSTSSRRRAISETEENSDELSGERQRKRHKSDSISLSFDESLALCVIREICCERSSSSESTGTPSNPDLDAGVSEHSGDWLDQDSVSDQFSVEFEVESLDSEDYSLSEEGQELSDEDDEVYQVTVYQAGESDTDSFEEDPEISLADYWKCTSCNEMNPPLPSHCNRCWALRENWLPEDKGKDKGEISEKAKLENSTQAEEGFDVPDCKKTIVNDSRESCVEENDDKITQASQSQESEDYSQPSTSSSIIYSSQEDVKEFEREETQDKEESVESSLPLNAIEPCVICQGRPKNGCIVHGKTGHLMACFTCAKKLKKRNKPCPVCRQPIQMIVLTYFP
EXPERIMENTAL_PROTOCOL: Inhibition of human MDM2/P53 interaction by HTRF assay
MEASURED_PROPERTY: log10 IC50 (log10 of the value in µM)
Field: value | Transform: log10 | Quantity: IC50 | Unit: µM

Some compounds with recorded log10 IC50:
CCOc1cccc2c1C1=C(C(c3ccc(Br)cc3)O2)C(c2ccc(Br)cc2)n2ncnc2N1C (racemic); -0.04
CN1C2=C(C(c3ccc(Br)cc3)Oc3cc(Cl)ccc32)C(c2ccc(Br)cc2)n2ncnc21 (racemic); 1.18
COc1c(C)ccc2c1C1=C(C(c3ccc(Br)cc3)O2)C(c2ccc(Br)cc2)n2ncnc2N1C (racemic); 0.60
Cc1ccc(C2Oc3ccccc3C3=C2C(c2ccc(Br)cc2)n2ncnc2N3C)cc1 (racemic); 0.67
CN1C2=C(C(c3ccc(Br)cc3)Oc3c(Cl)cccc32)C(c2ccc(Br)cc2)n2ncnc21 (racemic); 0.54
CN1C2=C(C(c3ccc(Br)cc3)Oc3ccc(Cl)cc32)C(c2ccc(Br)cc2)n2ncnc21 (racemic); 0.15

Problem: Which log10 IC50 value belongs to Cc1cc2c(cc1F)OC(c1ccc(Br)cc1)C1=C2N(C)c2ncnn2C1c1ccc(Br)cc1 (racemic) ?
Solution: -0.32

Problem: Which log10 IC50 value belongs to CN1C2=C(C(c3ccc(Cl)cc3)Oc3ccccc32)C(c2ccc(Cl)cc2)n2ncnc21 (racemic) ?
Solution: 0.08

====

EXPERIMENTAL_SYSTEM: Tumour suppressor p53/oncoprotein Mdm2 (Homo sapiens, UniProt Q00987)
EXPERIMENTAL_PROTOCOL: Inhibition of human MDM2/P53 interaction by HTRF assay
MEASURED_PROPERTY: IC50 (µM)
Record the value in µM, omitting the unit from your answer.

Cc1ccc2c(c1)C1=C(C(c3ccc(Br)cc3)O2)C(c2ccc(Br)cc2)n2ncnc2N1C (racemic); 0.44
CN1C2=C(C(c3ccc(Br)cc3)Oc3ccccc32)C(c2ccc(F)cc2)n2ncnc21 (racemic); 1.88
CN1C2=C(C(c3ccc(Br)cc3)Oc3ccc(C#N)cc32)C(c2ccc(Br)cc2)n2ncnc21 (racemic); 3.06
CC#Cc1ccc(C2Oc3ccccc3C3=C2C(c2ccc(Br)cc2)n2ncnc2N3C)cc1 (racemic); 9.07
CN1C2=C(C(c3ccc(C#N)cc3)Oc3ccccc32)C(c2ccc(Br)cc2)n2ncnc21 (racemic); 2.08
CN1C2=C(C(c3ccc(Br)cc3)Oc3cc(F)ccc32)C(c2ccc(Br)cc2)n2ncnc21 (racemic); 0.99

Problem: Which IC50 value belongs to C#Cc1ccc(C2Oc3ccccc3C3=C2C(c2ccc(Br)cc2)n2ncnc2N3C)cc1 (racemic) ?
Solution: 2.47

Problem: Which IC50 value belongs to Cc1ccc(C2C3=C(c4ccccc4OC3c3ccc(Br)cc3)N(C)c3ncnn32)cc1 (racemic) ?
Solution: 4.74

====

EXPERIMENTAL_SYSTEM: Tumour suppressor p53/oncoprotein Mdm2 (Homo sapiens, UniProt Q00987)
EXPERIMENTAL_PROTOCOL: Inhibition of human MDM2/P53 interaction by HTRF assay
Form field: log10 of IC50 (one value per entry).
Field: value | Transform: log10 | Quantity: IC50 | Unit: µM

Some compounds with recorded log10 of IC50:
CCc1ccc2c(c1)C1=C(C(c3ccc(Br)cc3)O2)C(c2ccc(Br)cc2)n2ncnc2N1C (racemic); 0.51
CN1C2=C(C(c3ccc(Br)cc3)Oc3cccc(F)c32)C(c2ccc(Br)cc2)n2ncnc21 (racemic); 0.24
CN1C2=C(C(c3ccc(Br)cc3)Oc3ccc(F)cc32)C(c2ccc(Br)cc2)n2ncnc21 (racemic); 0.24
CN1C2=C(C(c3ccc(F)cc3)Oc3ccccc32)C(c2ccc(F)cc2)n2ncnc21 (racemic); 1.17
CN1C2=C(C(c3ccc(F)cc3)Oc3ccccc32)C(c2ccc(Br)cc2)n2ncnc21 (racemic); 0.82
CN1C2=C(C(c3ccc(Br)cc3)Oc3ccccc32)C(c2ccc(C#N)cc2)n2ncnc21 (racemic); 0.77

Next item in the queue.
Problem: Record CN1C2=C(C(c3ccc(Cl)cc3)Oc3ccccc32)C(c2ccc(Br)cc2)n2ncnc21 (racemic) : what is its log10 of IC50 with Tumour suppressor p53/oncoprotein Mdm2 (Homo sapiens, UniProt Q00987)?
Solution: -0.05
